Below, each entry is listed alongside its reported Degradation rate of ERα in MCF-7 cells (%).
Subject Of Test: ERα (Homo sapiens, UniProt P03372)
Sequence (P03372 1-595): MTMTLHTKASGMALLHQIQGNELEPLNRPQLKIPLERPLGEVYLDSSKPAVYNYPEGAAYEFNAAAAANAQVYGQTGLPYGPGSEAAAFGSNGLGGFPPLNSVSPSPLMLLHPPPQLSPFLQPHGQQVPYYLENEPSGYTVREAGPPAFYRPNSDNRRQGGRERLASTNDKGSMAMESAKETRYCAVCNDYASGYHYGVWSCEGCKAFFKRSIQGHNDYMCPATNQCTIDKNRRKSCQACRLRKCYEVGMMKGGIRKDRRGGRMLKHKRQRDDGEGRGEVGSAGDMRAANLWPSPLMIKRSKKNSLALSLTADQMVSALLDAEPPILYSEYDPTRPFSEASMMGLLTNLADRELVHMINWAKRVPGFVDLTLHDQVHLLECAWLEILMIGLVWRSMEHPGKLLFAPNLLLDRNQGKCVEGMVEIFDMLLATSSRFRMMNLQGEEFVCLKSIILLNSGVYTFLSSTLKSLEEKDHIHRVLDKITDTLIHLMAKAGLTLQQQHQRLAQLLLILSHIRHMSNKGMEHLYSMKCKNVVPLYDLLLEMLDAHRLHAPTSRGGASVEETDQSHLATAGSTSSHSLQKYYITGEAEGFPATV
Experiment Description: ERα degradation in MCF-7 cells (Western blot)
Format: cell-based
Design: host or cells: MCF-7
Run Conditions: 10nM, 4 hours
Observation Type: Degradation rate of ERα in MCF-7 cells (%)

{"columns": ["Compound", "Obs Value"],
 "data": [
  ["O=C1CCC(Nc2ccc3c(c2)OCC2(CCN(C[C@H]4CC[C@@H](OC5CCN(c6ccc([C@@H]7c8ccc(O)cc8CC[C@@H]7c7ccccc7)cc6)CC5)CC4)CC2)C3)C(=O)N1 (some centres unmarked) [ER-P-41]", 15],
  ["O=C1CC[C@H](N2Cc3cc(N4CCN(CC5CCN(c6ccc([C@@H]7c8ccc(O)cc8CC[C@@H]7c7ccccc7)cc6)CC5)CC4)ccc3C2=O)C(=O)N1 [ARV-471, reference compound]", 76],
  ["O=C1CCC(N2Cc3c(ccc4c3OCC43CCC4(CCN(CC5CCN(c6ccc([C@@H]7c8ccc(O)cc8CC[C@@H]7c7ccccc7)cc6)CC5)CC4)CC3)C2=O)C(=O)N1 (some centres unmarked) [ER-P-1]", 44],
  ["O=C1CC[C@H](NC(=O)c2ccc3c(c2)OCC[C@H]2CN(CC4CCC(OC5CCN(c6ccc([C@@H]7c8ccc(O)cc8CC[C@@H]7c7ccccc7)cc6)CC5)CC4)CCN32)C(=O)N1 (some centres unmarked) [ER-P-45]", -24],
  ["O=C1CCC(Nc2ccc3c(c2)OC2(CC3)CCN(C[C@H]3CC[C@@H](OC4CCN(c5ccc([C@@H]6c7ccc(O)cc7CC[C@@H]6c6ccccc6)cc5)CC4)CC3)CC2)C(=O)N1 (some centres unmarked) [ER-P-43]", -19]
]}

* * *

Subject Of Test: AR protein (Homo sapiens)
Construct: host or cells: VCaP
Sequence (P10275 whole entry): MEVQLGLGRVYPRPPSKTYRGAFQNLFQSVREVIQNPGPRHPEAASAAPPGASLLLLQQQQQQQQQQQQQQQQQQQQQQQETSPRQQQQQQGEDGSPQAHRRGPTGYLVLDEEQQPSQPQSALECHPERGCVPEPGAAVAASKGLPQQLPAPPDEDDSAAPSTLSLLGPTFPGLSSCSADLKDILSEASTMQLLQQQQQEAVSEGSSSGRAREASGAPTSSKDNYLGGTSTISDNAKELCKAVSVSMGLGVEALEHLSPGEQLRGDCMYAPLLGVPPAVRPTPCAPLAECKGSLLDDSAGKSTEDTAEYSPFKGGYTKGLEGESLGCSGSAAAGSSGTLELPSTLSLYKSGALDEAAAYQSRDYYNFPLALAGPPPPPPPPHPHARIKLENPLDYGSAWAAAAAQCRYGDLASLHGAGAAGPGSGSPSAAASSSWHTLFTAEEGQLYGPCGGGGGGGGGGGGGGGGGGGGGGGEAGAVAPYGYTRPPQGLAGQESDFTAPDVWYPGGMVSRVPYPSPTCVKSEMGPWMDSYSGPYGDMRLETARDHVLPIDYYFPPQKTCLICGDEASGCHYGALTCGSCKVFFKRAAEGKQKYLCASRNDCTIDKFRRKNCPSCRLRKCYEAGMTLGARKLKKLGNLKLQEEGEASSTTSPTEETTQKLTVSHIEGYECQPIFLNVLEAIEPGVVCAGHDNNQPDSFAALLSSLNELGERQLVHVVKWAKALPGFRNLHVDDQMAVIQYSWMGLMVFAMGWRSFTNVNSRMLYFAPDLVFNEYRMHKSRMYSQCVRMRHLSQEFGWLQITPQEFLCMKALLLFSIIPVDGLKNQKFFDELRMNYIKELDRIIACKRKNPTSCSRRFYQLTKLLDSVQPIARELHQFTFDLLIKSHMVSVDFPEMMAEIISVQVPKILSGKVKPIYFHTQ
Experiment Description: AR protein degradation in VCaP cells (Western blot)
Type: cell-based
Run Conditions: 0.5 nM, 8h
Below, each entry is listed alongside its reported AR protein degradation rate at fixed concentration (%) at 0.0005 µM.
Observation Type: AR protein degradation rate at fixed concentration (%) at 0.0005 µM

{"columns": ["Molecule", "Subject Of Test", "Obs Value"],
 "data": [
  ["COc1cc(O[C@H]2CC[C@H](NC(=O)c3ccc(N4CCC(N5CCC6(CC5)COc5cc7c(cc56)n(C)c(=O)n7C5CCC(=O)NC5=O)CC4)nn3)CC2)ccc1C#N (some centres unmarked)", "AR protein (Homo sapiens)", "76%"],
  ["C[C@H]1CC2(CCN(c3ccc(N4CCC(CN5CCC6(CC5)COc5ccc7c(c56)n(C)c(=O)n7C5CCC(=O)NC5=O)CC4)cc3)CC2)CN1c1ccc(C#N)c(Cl)c1 (some centres unmarked)", "AR protein (Homo sapiens)", "-43%"],
  ["COc1cc(O[C@H]2C(C)(C)[C@H](NC(=O)c3ccc(N4CCC(F)(CN5CCC6(CC5)COc5cc7c(cc56)n(C)c(=O)n7C5CCC(=O)NC5=O)CC4)cc3)C2(C)C)ccc1C#N (some centres unmarked)", "AR protein (Homo sapiens)", "44%"],
  ["Cn1c(=O)n(C2CCC(=O)NC2=O)c2ccc3c(c21)OCC31CCN(C2CCN(c3ccc(C(=O)N[C@H]4CC[C@H](Oc5ccc(C#N)c(Cl)c5)CC4)nn3)CC2)CC1 (some centres unmarked)", "AR protein (Homo sapiens)", "85%"],
  ["Cn1c(=O)n(C2CCC(=O)NC2=O)c2ccc3c(c21)OCC31CCN(C2CC3(CCN(c4ccc(C(=O)N[C@H]5CC[C@H](Oc6ccc(C#N)c(Cl)c6)CC5)nn4)CC3)C2)CC1 (some centres unmarked)", "AR protein (Homo sapiens)", "91%"]
]}
